- Tested on: prostanoids
- assay-remarks: Inhibition of the metabolism of 14C-arachidonate in the blood platelets of rabbits: prostanoids route (TxB2, HHT)
- Assay type: cell-based
- setup-conditions: Oryctolagus cuniculus, Platelet, rabbit blood platelets; HHT; read-out: IC50 in the blood platelets, HHT
Consider the following compounds; for each one, report its IC50.

Asked: # return recorded IC50 for entry `CCOC(=O)CCCC(C)=NNc1nccs1`
Given back: > 50 µM

Asked: # return recorded IC50 for entry `CC(=NNc1nccs1)c1ccco1`
Given back: > 50 µM

Asked: # return recorded IC50 for entry `CC(Cn1ccnc1)=NNc1nccs1`
Given back: > 50 µM
